Molecular target: human NR1/NR2B (Homo sapiens (Human))
Sequence (Q13224 27-1484, other chains not shown): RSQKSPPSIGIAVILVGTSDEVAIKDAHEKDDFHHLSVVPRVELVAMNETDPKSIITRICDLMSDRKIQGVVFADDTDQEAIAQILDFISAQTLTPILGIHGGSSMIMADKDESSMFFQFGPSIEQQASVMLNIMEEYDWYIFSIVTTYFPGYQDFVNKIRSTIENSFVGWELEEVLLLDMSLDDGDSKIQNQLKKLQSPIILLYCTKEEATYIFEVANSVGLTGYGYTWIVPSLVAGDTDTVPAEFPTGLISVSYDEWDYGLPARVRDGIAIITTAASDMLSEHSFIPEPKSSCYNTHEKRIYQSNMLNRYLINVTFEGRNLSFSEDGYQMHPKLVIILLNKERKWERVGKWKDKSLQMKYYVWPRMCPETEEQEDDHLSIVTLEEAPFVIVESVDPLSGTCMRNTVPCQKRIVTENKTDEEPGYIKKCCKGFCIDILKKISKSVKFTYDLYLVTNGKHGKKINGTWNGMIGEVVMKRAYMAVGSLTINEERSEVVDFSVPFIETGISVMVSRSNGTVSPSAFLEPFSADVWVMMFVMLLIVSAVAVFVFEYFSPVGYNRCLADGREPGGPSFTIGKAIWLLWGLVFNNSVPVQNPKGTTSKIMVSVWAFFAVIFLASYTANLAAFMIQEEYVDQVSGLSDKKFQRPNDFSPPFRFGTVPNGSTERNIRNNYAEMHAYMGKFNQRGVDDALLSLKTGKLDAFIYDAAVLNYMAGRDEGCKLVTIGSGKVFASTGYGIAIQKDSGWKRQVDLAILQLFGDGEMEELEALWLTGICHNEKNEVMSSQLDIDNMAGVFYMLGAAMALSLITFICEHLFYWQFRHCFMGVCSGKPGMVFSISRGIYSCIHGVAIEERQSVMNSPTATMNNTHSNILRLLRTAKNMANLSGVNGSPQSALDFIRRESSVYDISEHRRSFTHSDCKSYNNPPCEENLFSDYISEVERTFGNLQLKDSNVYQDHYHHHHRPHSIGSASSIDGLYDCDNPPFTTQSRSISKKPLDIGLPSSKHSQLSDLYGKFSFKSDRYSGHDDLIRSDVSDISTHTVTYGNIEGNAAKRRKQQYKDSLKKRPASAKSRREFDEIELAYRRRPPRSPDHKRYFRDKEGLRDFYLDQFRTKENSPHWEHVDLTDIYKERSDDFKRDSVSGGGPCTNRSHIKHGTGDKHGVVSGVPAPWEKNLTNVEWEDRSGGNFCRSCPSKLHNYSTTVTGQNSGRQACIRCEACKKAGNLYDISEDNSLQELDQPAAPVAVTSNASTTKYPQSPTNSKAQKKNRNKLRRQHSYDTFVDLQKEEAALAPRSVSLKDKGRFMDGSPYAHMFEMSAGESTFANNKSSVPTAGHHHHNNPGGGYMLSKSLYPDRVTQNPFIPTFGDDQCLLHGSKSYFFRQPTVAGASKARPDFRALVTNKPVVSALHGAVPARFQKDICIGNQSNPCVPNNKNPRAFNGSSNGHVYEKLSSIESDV
Test: NR2B antagonist activity (Fluo-4 calcium influx assay)
Assay type: cell-based
Details: read-out: NR2B IC50
metric: pIC50
# pIC50 is unitless: minus log10 of the molar concentration; print number only

Some solved entries appear below for comparison.
>  <compound>
Cc1ccc(C(F)(F)CN2CCC(Nc3ncnc4[nH]ccc34)CC2)cn1 [Compound C-128]

>  <system tested>
human NR1/NR2B (Homo sapiens (Human))

>  <val>
7.05

$$$$
>  <compound>
Cc1cnc(C(F)(F)CN2CCC(Nc3ncnc4[nH]ccc34)CC2)cn1 [Compound C-230]

>  <system tested>
human NR1/NR2B (Homo sapiens (Human))

>  <val>
7.06

$$$$
>  <compound>
Fc1ccc(C(F)(F)CN2CCC(Nc3ncnc4[nH]ccc34)CC2)nc1 [Compound C-2]

>  <system tested>
human NR1/NR2B (Homo sapiens (Human))

>  <val>
6.91

$$$$

Provide only the value of recorded pIC50 for Fc1cc(Cl)cnc1C(F)(F)CN1CCC(Nc2ncnc3[nH]ccc23)CC1 [Compound C-16]
7.33

Provide only the value of recorded pIC50 for Fc1ccc(C(F)(F)CN2CCC(Nc3ncnc4[nH]ccc34)CC2)cc1 [Compound C-175]
7.66

Provide only the value of recorded pIC50 for Cc1cnc(C(F)(F)CN2CCC(Nc3ncnc4[nH]ccc34)CC2)c(F)c1 [Compound C-17]
7.36

Provide only the value of recorded pIC50 for FCc1ccc(C(F)(F)CN2CCC(Nc3ncnc4[nH]ccc34)CC2)nc1 [Compound C-7]
7.85

Provide only the value of recorded pIC50 for Cc1ccc(C(F)(F)CN2CCC(N(C)c3ncnc4[nH]ccc34)CC2)nc1 [Compound C-47]
6.85

Provide only the value of recorded pIC50 for Cc1ccc(C(F)(F)CN2CCC(Nc3ncnc4[nH]ccc34)CC2)nc1 [Compound C-4]
7.46

Provide only the value of recorded pIC50 for Cc1ccc(C(F)(F)CN2CCC(Nc3ncnc4[nH]ccc34)CC2)cc1 [Compound C-177]
7.57

Provide only the value of recorded pIC50 for FC(F)(CN1CCC(Nc2ncnc3[nH]ccc23)CC1)c1ccc(Cl)cc1 [Compound C-176]
7.59

These entries and their values trace back to patent US9567341B2.
